assay: activity coefficient (dimensionless); of the first substance listed, at infinite dilution; xn = mol fraction of the nth substance listed; details: 353.15 K; Liquid; Chromatography; x1 = 0
OUTCOME_MEASURE: activity coefficient
Give bare numbers.

- COMPOUND: "CC(C)CC(C)(C)C [2,2,4-trimethylpentane] + CCCCCCn1cc[n+](C)c1.O=S(=O)([O-])C(F)(F)F"
  activity coefficient: 25.7
- COMPOUND: "c1ccccc1 [benzene] + CCCCCCn1cc[n+](C)c1.O=S(=O)([O-])C(F)(F)F"
  activity coefficient: 1.64
- COMPOUND: "C1=CCCCC1 [cyclohexene] + CCCCCCn1cc[n+](C)c1.O=S(=O)([O-])C(F)(F)F"
  activity coefficient: 6.5
- COMPOUND: "CCc1ccccc1 [ethylbenzene] + CCCCCCn1cc[n+](C)c1.O=S(=O)([O-])C(F)(F)F"
  activity coefficient: 3.21

Okay, here is my list. What is activity coefficient for each of these?
1. Cc1ccccc1C [1,2-dimethylbenzene] + CCCCCCn1cc[n+](C)c1.O=S(=O)([O-])C(F)(F)F
2. CCCCCCCCCC [decane] + CCCCCCn1cc[n+](C)c1.O=S(=O)([O-])C(F)(F)F
3. Cc1cccc(C)c1 [1,3-dimethylbenzene] + CCCCCCn1cc[n+](C)c1.O=S(=O)([O-])C(F)(F)F
4. Cc1ccccc1 [toluene] + CCCCCCn1cc[n+](C)c1.O=S(=O)([O-])C(F)(F)F
5. CCCCC [pentane] + CCCCCCn1cc[n+](C)c1.O=S(=O)([O-])C(F)(F)F

Reply:
1: 2.72; 2: 148; 3: 3.19; 4: 2.25; 5: 14

---

Exercise: state measured activity coefficient for each of the molecules provided.
experiment: activity coefficient (dimensionless); of the first substance listed, at infinite dilution; xn = mol fraction of the nth substance listed; details: 333.15 K; Liquid; Chromatography; x1 = 0
Give bare numbers.

Recorded results for 3 molecules are shown here.
- MOLECULE: "Cc1cccc(C)c1 [1,3-dimethylbenzene] + CCCCCCn1cc[n+](C)c1.O=S(=O)([O-])C(F)(F)F"
  OUTCOME_MEASURE: "activity coefficient"
  RECORDED_VALUE: 3.03
- MOLECULE: "C1=CCCCC1 [cyclohexene] + CCCCCCn1cc[n+](C)c1.O=S(=O)([O-])C(F)(F)F"
  OUTCOME_MEASURE: "activity coefficient"
  RECORDED_VALUE: 6.37
- MOLECULE: "C=Cc1ccccc1 [styrene] + CCCCCCn1cc[n+](C)c1.O=S(=O)([O-])C(F)(F)F"
  OUTCOME_MEASURE: "activity coefficient"
  RECORDED_VALUE: 1.81

Okay, here is my list. What is activity coefficient for each of these?
1. CCCCCCCC [octane] + CCCCCCn1cc[n+](C)c1.O=S(=O)([O-])C(F)(F)F
2. CCCCCCC [heptane] + CCCCCCn1cc[n+](C)c1.O=S(=O)([O-])C(F)(F)F
3. C1CCCCC1 [cyclohexane] + CCCCCCn1cc[n+](C)c1.O=S(=O)([O-])C(F)(F)F
4. Cc1ccccc1 [toluene] + CCCCCCn1cc[n+](C)c1.O=S(=O)([O-])C(F)(F)F
5. CCCCCCCCCC [decane] + CCCCCCn1cc[n+](C)c1.O=S(=O)([O-])C(F)(F)F

Reply:
1: 33.4; 2: 26.5; 3: 10.7; 4: 2.14; 5: 227

src = the NIST ThermoML archive (doi:10.1021/je800043a)
